Test target: P2X7 receptor (Homo sapiens, UniProt Q99572)
Construct: host or cells: THP-1 cells differentiated with LPS and IFN-γ
Sequence (Q99572 whole entry): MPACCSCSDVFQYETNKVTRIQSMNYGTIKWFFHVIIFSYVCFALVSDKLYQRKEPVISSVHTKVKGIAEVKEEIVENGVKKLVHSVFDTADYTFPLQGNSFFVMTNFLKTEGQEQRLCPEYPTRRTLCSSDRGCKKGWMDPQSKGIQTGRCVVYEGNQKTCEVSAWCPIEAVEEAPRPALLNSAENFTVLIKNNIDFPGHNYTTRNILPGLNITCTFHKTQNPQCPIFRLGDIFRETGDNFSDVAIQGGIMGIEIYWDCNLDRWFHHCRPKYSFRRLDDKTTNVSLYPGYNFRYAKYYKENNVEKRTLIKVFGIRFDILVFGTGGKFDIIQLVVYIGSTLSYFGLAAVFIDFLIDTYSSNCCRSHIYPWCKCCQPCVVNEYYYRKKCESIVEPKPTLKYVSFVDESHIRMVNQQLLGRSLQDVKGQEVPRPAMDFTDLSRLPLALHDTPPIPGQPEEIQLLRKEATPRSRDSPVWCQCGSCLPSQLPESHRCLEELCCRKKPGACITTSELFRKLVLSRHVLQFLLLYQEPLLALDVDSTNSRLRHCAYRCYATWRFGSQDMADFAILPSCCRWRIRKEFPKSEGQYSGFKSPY
Assay: IL-1β release assay in differentiated THP-1 cells stimulated with BzATP (Example 9)
Type: cell-based
Cond: 0.3 μM compound; differentiated THP-1 cells, BzATP 250 uM; symbols + to ++++; read-out: IL-1β % Inhib. @ 0.3 μM
Listed here: items and their measured inhibition at 0.3 µM.

Field: example entries. Status: answers known.
COCCn1ccc2c(NC(=O)c3ccccc3C)cccc2c1=O [Compound 1310] : 0 to 25%
Cc1ccc(Cl)cc1C(=O)Nc1cccc2c(=O)n(CC(C)(C)C)ccc12 [Compound 1283] : 26 to 50%
COc1ccc(CC(=O)Nc2cccc3c(=O)n(CCN4CCOCC4)ccc23)cc1C [Compound 1234] : 0 to 25%

# ---- query molecule ----
IN: Item O=C(CCc1cccc(Cl)c1)Nc1cccc2c(=O)n(CCN3CCOCC3)ccc12 [Compound 1242] has what recorded inhibition at 0.3 µM?
OUT: 26 to 50%
